- Tested on: Calu-3
- experiment: relative viability EC50 (midpoint between 100% and the lowest measured viability); higher = less toxic
- condition.parameters: 72 h
As shown below, each of these compounds has a reported relative viability EC50 value.

Field: example entries. Status: answers known.
{"compound": "CC(=O)Nc1ncc([N+](=O)[O-])s1 [nithiamide]", "relative viability EC50": "> 10 µM"}
{"compound": "CCOC(=O)CCC(=O)O[C@H]1[C@H](O[C@@H]2[C@@H](C)[C@H](O[C@H]3C[C@@](C)(OC)[C@@H](O)[C@H](C)O3)[C@@H](C)C(=O)O[C@H](CC)[C@@](C)(O)[C@H](O)[C@@H](C)C(=O)[C@H](C)C[C@@]2(C)O)O[C@H](C)C[C@@H]1N(C)C [erythromycin-ethylsuccinate]", "relative viability EC50": "> 10 µM"}

## Task relative viability EC50 for CCOC(=O)c1ncn2c1CN(C)C(=O)c1cc(F)ccc1-2 ?
## Result > 10 µM
